Sourced from patent EP0565377B1

Test system: dd-strain male mice
Assay: Acute toxicity test (minimum lethal dose, oral)
Format: in vivo
Conditions: oral administration, mortality seven days after administration, three mice per group
parameterMeasured: MLD

| chemicalString | MLD |
| --- | --- |
| CCCn1c(=O)c2[nH]c(/C=C/c3ccc(OCC)cc3)nc2n(CCC)c1=O | > 100 mg/kg |
| CCCn1c(=O)c2[nH]c(/C=C/c3cc(C)c(OC)cc3C)nc2n(CCC)c1=O | > 300 mg/kg |
| CCCn1c(=O)c2[nH]c(/C=C/c3cc(OC)c(OCc4ccccc4)c(OC)c3)nc2n(CCC)c1=O | > 100 mg/kg |
| CCCn1c(=O)c2c(nc(/C=C/c3cccc(OC)c3OC)n2C)n(CCC)c1=O | > 300 mg/kg |
| CCCn1c(=O)c2c(nc(/C=C/c3ccc(OCC)cc3)n2C)n(CCC)c1=O | > 100 mg/kg |

Attention now shifts to the item below.
Input: Need MLD of `CCCn1c(=O)c2[nH]c(/C=C/c3cccc([N+](=O)[O-])c3)nc2n(CCC)c1=O` , thanks.
Output: > 100 mg/kg
